Examples of compounds with documented IC50 follow.
Tested on: P-Akt (S473)
Experiment: Cell based AlphaLISA assay, inhibition of P-Akt (S473) in MDA-MB-468 cells
Details: Homo sapiens, 4 h, 0.017-1,000 nM, two to four hours at 37° C., AlphaLisa SureFire Ultra, read-out: pIC50 for Inhibition of mTORC1 and mTORC2 Substrate Phosphorylation, p-AKT1/2/3-(S473) (converted)
propertyName: IC50

| compound | propertyName | value |
| --- | --- | --- |
| CO[C@H]1C[C@@H]2CC[C@@H](C)[C@@](O)(O2)C(=O)C(=O)N2CCCC[C@H]2C(=O)O[C@H]([C@H](C)C[C@@H]2CC[C@@H](O)[C@H](OC)C2)C[C@@H](O)[C@H](C)/C=C(\C)[C@@H](O)[C@@H](OC)C(=NOCC(=O)NCCOCCOCCOCCOCCOCCOCCC(=O)NC2CCN(CC(=O)N3CCc4cc(Cn5nc(-c6ccc7oc(N)nc7c6)c6c(N)ncnc65)ccc4C3)CC2)[C@H](C)C[C@H](C)/C=C/C=C/C=C/1C | IC50 | > 1000 nM |
| CO[C@H]1C[C@@H]2CC[C@@H](C)[C@@](O)(O2)C(=O)C(=O)N2CCCC[C@H]2C(=O)O[C@H]([C@H](C)C[C@@H]2CC[C@@H](O)[C@H](OC)C2)C[C@@H](O)[C@H](C)/C=C(\C)[C@@H](O)[C@@H](OC)C(=NOCC(=O)NCc2cnc(N3CCN(C(=O)CCOCCN4CCN(c5ncc(C(=O)NCCCCn6nc(-c7ccc8oc(N)nc8c7)c7c(N)ncnc76)cn5)CC4)CC3)nc2)[C@H](C)C[C@H](C)/C=C/C=C/C=C/1C | IC50 | 31.6 to 1000 nM |
| CO[C@H]1C[C@@H]2CC[C@@H](C)[C@@](O)(O2)C(=O)C(=O)N2CCCC[C@H]2C(=O)O[C@H]([C@H](C)C[C@@H]2CC[C@@H](O)[C@H](OC)C2)C[C@@H](O)[C@H](C)/C=C(\C)[C@@H](O)[C@@H](OC)C(=NOCC(=O)NC2CCN(CC(=O)NCCOCCOCCOCCOCCOCCOCCC(=O)N3CCc4cc(Cn5nc(-c6ccc7oc(N)nc7c6)c6c(N)ncnc65)ccc4C3)CC2)[C@H](C)C[C@H](C)/C=C/C=C/C=C/1C | IC50 | 31.6 to 1000 nM |
| CO[C@H]1C[C@@H]2CC[C@@H](C)[C@@](O)(O2)C(=O)C(=O)N2CCCC[C@H]2C(=O)O[C@H]([C@H](C)C[C@@H]2CC[C@@H](O)[C@H](OC)C2)C[C@@H](O)[C@H](C)/C=C(\C)[C@@H](O)[C@@H](OC)C(=NOCC(=O)NCCOCCC(=O)NCc2cnc(N3CCN(C(=O)CCOCCN4CCN(c5ncc(C(=O)NCCCCn6nc(-c7ccc8oc(N)nc8c7)c7c(N)ncnc76)cn5)CC4)CC3)nc2)[C@H](C)C[C@H](C)/C=C/C=C/C=C/1C | IC50 | 31.6 to 1000 nM |
| CO[C@H]1C[C@@H]2CC[C@@H](C)[C@@](O)(O2)C(=O)C(=O)N2CCCC[C@H]2C(=O)O[C@H]([C@H](C)C[C@@H]2CC[C@@H](O)[C@H](OC)C2)C[C@@H](O)[C@H](C)/C=C(\C)[C@@H](O)[C@@H](OC)C(=NOCC(=O)N2CCc3nc(N4CCN(c5ncc(C(=O)NCCOCCC(=O)NCCCCn6nc(-c7ccc8oc(N)nc8c7)c7c(N)ncnc76)cn5)CC4)ncc3C2)[C@H](C)C[C@H](C)/C=C/C=C/C=C/1C | IC50 | > 1000 nM |

----------
Attribute: IC50
Tested on: P-4E-BP1 (T37/46)
Assay: Cell based AlphaLISA assay, inhibition of P-4E-BP1 (T37/46) in MDA-MB-468 cells
Settings: Homo sapiens, 4 h, 0.017-1,000 nM, two to four hours at 37° C., AlphaLisa SureFire Ultra, read-out: pIC50 for Inhibition of mTORC1 and mTORC2 Substrate Phosphorylation, p-4E-BP1-(T37/46) (converted)

| compound | assayedSystem | IC50 |
| --- | --- | --- |
| CO[C@H]1C[C@@H]2CC[C@@H](C)[C@@](O)(O2)C(=O)C(=O)N2CCCC[C@H]2C(=O)O[C@H]([C@H](C)C[C@@H]2CC[C@@H](O)[C@H](OC)C2)C[C@@H](O)[C@H](C)/C=C(\C)[C@@H](O)[C@@H](OC)C(=NOCC(=O)NCc2cnc(N3CCN(C(=O)CCOCCN4CCN(CCOCCC(=O)N5CCc6cc(Cn7nc(-c8ccc9oc(N)nc9c8)c8c(N)ncnc87)ccc6C5)CC4)CC3)nc2)[C@H](C)C[C@H](C)/C=C/C=C/C=C/1C | P-4E-BP1 (T37/46) | 3.16 to 31.6 nM |
| CO[C@H]1C[C@@H]2CC[C@@H](C)[C@@](O)(O2)C(=O)C(=O)N2CCCC[C@H]2C(=O)O[C@H]([C@H](C)C[C@@H]2CC[C@@H](O)[C@H](OC)C2)C[C@@H](O)[C@H](C)/C=C(\C)[C@@H](O)[C@@H](OC)C(=NOCC(=O)NCCOCCOCCOCCOCCOCCOCCC(=O)NCCCCn2nc(-c3cnc4[nH]ccc4c3)c3c(N)ncnc32)[C@H](C)C[C@H](C)/C=C/C=C/C=C/1C | P-4E-BP1 (T37/46) | 3.16 to 31.6 nM |
| CO[C@H]1C[C@@H]2CC[C@@H](C)[C@@](O)(O2)C(=O)C(=O)N2CCCC[C@H]2C(=O)O[C@H]([C@H](C)C[C@@H]2CC[C@@H](O)[C@H](OC)C2)C[C@@H](OC)[C@H](C)/C=C(\C)[C@@H](O)[C@@H](OC)C(=NOCC(=O)NCCOCCOCCOCCOCCOCCOCCOCCOCCC(=O)NCCCCn2nc(-c3cnc4[nH]ccc4c3)c3c(N)ncnc32)[C@H](C)C[C@H](C)/C=C/C=C/C=C/1C | P-4E-BP1 (T37/46) | 3.16 to 31.6 nM |

----------
Some compounds, each annotated with its measured IC50.
System: P-4E-BP1 (T37/46)
Experiment: Cell based AlphaLISA assay, inhibition of P-4E-BP1 (T37/46) in MDA-MB-468 cells
Conditions: Homo sapiens, 4 h, 0.017-1,000 nM, two to four hours at 37° C., AlphaLisa SureFire Ultra, read-out: pIC50 for Inhibition of mTORC1 and mTORC2 Substrate Phosphorylation, p-4E-BP1-(T37/46) (converted)
propertyName: IC50

| compound | value |
| --- | --- |
| CO[C@H]1C[C@@H]2CC[C@@H](C)[C@@](O)(O2)C(=O)C(=O)N2CCCC[C@H]2C(=O)O[C@H]([C@H](C)C[C@@H]2CC[C@@H](O)[C@H](OC)C2)C[C@@H](O)[C@H](C)/C=C(\C)[C@@H](O)[C@@H](OC)C(=NOCC(=O)NCCOCCOCCOCCOCCOCCOCCOCCOCCC(=O)N2CCc3cc(Cn4nc(-c5cnc6[nH]ccc6c5)c5c(N)ncnc54)ccc3C2)[C@H](C)C[C@H](C)/C=C/C=C/C=C/1C | 3.16 to 31.6 nM |
| CO[C@H]1C[C@@H]2CC[C@@H](C)[C@@](O)(O2)C(=O)C(=O)N2CCCC[C@H]2C(=O)O[C@H]([C@H](C)C[C@@H]2CC[C@@H](O)[C@H](OC)C2)C[C@@H](O)[C@H](C)/C=C(\C)[C@@H](O)[C@@H](OC)C(=NOCC(=O)NCc2cnc(N3CCN(c4ncc(C(=O)NCCOCCC(=O)NCCCCn5nc(-c6ccc7oc(N)nc7c6)c6c(N)ncnc65)c(N)n4)CC3)nc2)[C@H](C)C[C@H](C)/C=C/C=C/C=C/1C | > 1000 nM |
| CO[C@H]1C[C@@H]2CC[C@@H](C)[C@@](O)(O2)C(=O)C(=O)N2CCCC[C@H]2C(=O)O[C@H]([C@H](C)C[C@@H]2CC[C@@H](O)[C@H](OC)C2)C[C@@H](O)[C@H](C)/C=C(\C)[C@@H](O)[C@@H](OC)C(=NOC(C)(C)C(=O)NCCOCCOCCOCCOCCOCCOCCC(=O)N2CCc3cc(Cn4nc(-c5ccc6oc(N)nc6c5)c5c(N)ncnc54)ccc3C2)[C@H](C)C[C@H](C)/C=C/C=C/C=C/1C | 3.16 to 31.6 nM |
| CO[C@H]1C[C@@H]2CC[C@@H](C)[C@@](O)(O2)C(=O)C(=O)N2CCCC[C@H]2C(=O)O[C@H]([C@H](C)C[C@@H]2CC[C@@H](O)[C@H](OC)C2)C[C@@H](OC)[C@H](C)/C=C(\C)[C@@H](O)[C@@H](OC)C(=NOCC(=O)NCCOCCOCCOCCOCCOCCOCCOCCOCCC(=O)N2CCc3cc(Cn4nc(-c5cnc6[nH]ccc6c5)c5c(N)ncnc54)ccc3C2)[C@H](C)C[C@H](C)/C=C/C=C/C=C/1C | 3.16 to 31.6 nM |
| CO[C@H]1C[C@@H]2CC[C@@H](C)[C@@](O)(O2)C(=O)C(=O)N2CCCC[C@H]2C(=O)O[C@H]([C@H](C)C[C@@H]2CC[C@@H](O)[C@H](OC)C2)C[C@@H](O)[C@H](C)/C=C(\C)[C@@H](O)[C@@H](OC)C(=NOCC(=O)N2CCc3nc(N4CCN(C(=O)CCOCCN5CCN(c6ncc(C(=O)N7CCc8cc(Cn9nc(-c%10ccc%11oc(N)nc%11c%10)c%10c(N)ncnc%109)ccc8C7)cn6)CC5)CC4)ncc3C2)[C@H](C)C[C@H](C)/C=C/C=C/C=C/1C | 3.16 to 31.6 nM |
| CO[C@H]1C[C@@H]2CC[C@@H](C)[C@@](O)(O2)C(=O)C(=O)N2CCCC[C@H]2C(=O)O[C@H]([C@H](C)C[C@@H]2CC[C@@H](O)[C@H](OC)C2)C[C@@H](O)[C@H](C)/C=C(\C)[C@@H](O)[C@@H](OC)C(=NOCC(=O)NCc2cnc(N3CCN(C(=O)CN(C)CC(=O)NCCOCCOCCC(=O)NCCCCn4nc(-c5ccc6oc(N)nc6c5)c5c(N)ncnc54)CC3)nc2)[C@H](C)C[C@H](C)/C=C/C=C/C=C/1C | 31.6 to 1000 nM |
| CO[C@H]1C[C@@H]2CC[C@@H](C)[C@@](O)(O2)C(=O)C(=O)N2CCCC[C@H]2C(=O)O[C@H]([C@H](C)C[C@@H]2CC[C@@H](O)[C@H](OC)C2)C[C@@H](O)[C@H](C)/C=C(\C)[C@@H](O)[C@@H](OC)C(=NOCC(=O)NCc2cnc(N3CCN(C(=O)CCCN4CCN(c5ncc(C(=O)N6CCC(n7nc(-c8ccc9oc(N)nc9c8)c8c(N)ncnc87)CC6)cn5)CC4)CC3)nc2)[C@H](C)C[C@H](C)/C=C/C=C/C=C/1C | > 1000 nM |
| CO[C@H]1C[C@@H]2CC[C@@H](C)[C@@](O)(O2)C(=O)C(=O)N2CCCC[C@H]2C(=O)O[C@H]([C@H](C)C[C@@H]2CC[C@@H](O)[C@H](OC)C2)C[C@@H](O)[C@H](C)/C=C(\C)[C@@H](O)[C@@H](OC)C(=NOCC(=O)NCc2cnc(N3CCN(C(=O)CN(C)CC(=O)NCCOCCOCCC(=O)NCCCCn4nc(-c5cnc6[nH]ccc6c5)c5c(N)ncnc54)CC3)nc2)[C@H](C)C[C@H](C)/C=C/C=C/C=C/1C | 31.6 to 1000 nM |
| CO[C@H]1C[C@@H]2CC[C@@H](C)[C@@](O)(O2)C(=O)C(=O)N2CCCC[C@H]2C(=O)O[C@H]([C@H](C)C[C@@H]2CC[C@@H](O)[C@H](OC)C2)C[C@@H](O)[C@H](C)/C=C(\C)[C@@H](O)[C@@H](OC)C(=NOCC(=O)NCc2cnc(N3CCN(C(=O)CCOCCN4CCN(c5ncc(C(=O)N6CCC(n7nc(-c8ccc9oc(N)nc9c8)c8c(N)ncnc87)CC6)cn5)CC4)CC3)nc2)[C@H](C)C[C@H](C)/C=C/C=C/C=C/1C | 3.16 to 31.6 nM |
